Values from patent US20150376269A1

Target: T1, serum resistance-associated protein (SRA) from Trypanosoma brucei rhodesiense, recombinant SRA (SEQ ID NO: … (Trypanosoma brucei rhodesiense, UniProt O96637 31-274))
T1 construct: also called SRA protein
T1 sequence: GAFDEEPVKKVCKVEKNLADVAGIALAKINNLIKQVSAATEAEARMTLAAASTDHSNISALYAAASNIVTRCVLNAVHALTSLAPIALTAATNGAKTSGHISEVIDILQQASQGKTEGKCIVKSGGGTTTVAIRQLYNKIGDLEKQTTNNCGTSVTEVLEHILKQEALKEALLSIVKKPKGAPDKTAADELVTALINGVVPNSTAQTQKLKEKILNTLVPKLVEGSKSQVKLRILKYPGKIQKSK
Assay: SPR, mAb captured, 25C, pH 7.4
Reported values of Kd for individual entries
metric_name: Kd

{"columns": ["binder", "metric_name", "obs_value"],
 "data": [
  ["H1H10067P (antibody, V domains shown, Fully human antibody with human IgG1 Fc (prefix H1H)) VH: QVQLQESGPGLVKPSQTLSLTCIVSGGSISSGDYYWNWIRQHPGKGLEWIGDIYHSGDTYYNPSLKSRVTISLDTSKNQFSLKLSSLTAADTAVYYCARDRIVATGGGMDVWGQGTTVTVSS VL: DIQMTQSPSTLSASVGDRVTITCRASQSISSWLAWYQRKPGKAPNLLIYRSSSLESGVPSRFSGSGSGTEFTLTISSLQADDFVIYYCQQYNSYPYTFGQGTKLEIK", "Kd", "≤ 0.0557 nM"],
  ["H1H10069P (antibody, V domains shown, Fully human antibody with human IgG1 Fc (prefix H1H)) VH: QVQLQESGPGLVKPSETLSLTCSVSGGSFTNYYWSWIRQPPGKGLEWIGSVFYSGTTNYNPSLQSRVTLSIETSKNQFSLRLNSVTAADTAVYYCARDQGAAALDYWGQGTLVTVSS VL: DIQMTQSPSTLSASVGDRLTITCRASQSINNWLAWYQQKPGKAPKLLIYKASNLESGVPSRFSGSGSGTEFTLTISNLQPDDFATYYCQQYNSFFLTFGGGTKVEIK", "Kd", "≤ 0.0785 nM"],
  ["H2aM10285N (antibody, V domains shown, Chimeric antibody, human variable domains and mouse constant domains (mouse Fc, prefix H2aM); also called H2M10285N) VH: QVQLVQSGAEVKKPGSSVKVSCKASGGTFTNFAISWVRQAPGLGLEWMGGIIPFVGTATYEQKFQGRVSITADESTRTAYMELSSLRYDDTAVYYCARWFSGSGGDFDYWGQGTLVTVSS VL: AIQMTQSPSSLSASVGDRVTITCRASQGIGNDLGWYQQRRGTAPKLLIYAASSLQSGVPSRFSGSGSGTDFTLTISSLQPEDFATYYCLQDFTFPRTFGQGTKVEIK", "Kd", "0.138 nM"]
]}
